Where these numbers come from: patent US20210301025A1

Reported binding relative to P54AR4-83v2 parent by item:
- target_of_assay: EGFR (form used in the assay not stated) (human, UniProt P00533 25-645, limits assumed)
- protocol_description: ELISA, NEM conjugate, 100 nM
measurement_label: binding relative to P54AR4-83v2 parent (ratio)

[[record]]
binder = "P54AR4-83v2 A26C, NEM conjugate (designed binder, not shown: small tags and cut ends, N-ethyl maleimide (NEM) on Cys 26) LPAPKNLVVSEVTEDSARLSWDDPWCFYESFLIQYQESEKVGEAIVLTVPGSERSYDLTGLKPGTEYTVSIYGVHNVYKDTNMRGLPLSAIFTT"
measurement_label = "binding relative to P54AR4-83v2 parent"
value = 1.06

[[record]]
binder = "P54AR4-83v2 S16C, NEM conjugate (designed binder, not shown: small tags and cut ends, N-ethyl maleimide (NEM) on Cys 16) LPAPKNLVVSEVTEDCARLSWDDPWAFYESFLIQYQESEKVGEAIVLTVPGSERSYDLTGLKPGTEYTVSIYGVHNVYKDTNMRGLPLSAIFTT"
measurement_label = "binding relative to P54AR4-83v2 parent"
value = 1.05

[[record]]
binder = "P54AR4-83v2 S70C, NEM conjugate (designed binder, not shown: small tags and cut ends, N-ethyl maleimide (NEM) on Cys 70, also called 570C) LPAPKNLVVSEVTEDSARLSWDDPWAFYESFLIQYQESEKVGEAIVLTVPGSERSYDLTGLKPGTEYTVCIYGVHNVYKDTNMRGLPLSAIFTT"
measurement_label = "binding relative to P54AR4-83v2 parent"
value = 1.01

[[record]]
binder = "P54AR4-83v2 L88C, NEM conjugate (designed binder, not shown: small tags and cut ends, N-ethyl maleimide (NEM) on Cys 88) LPAPKNLVVSEVTEDSARLSWDDPWAFYESFLIQYQESEKVGEAIVLTVPGSERSYDLTGLKPGTEYTVSIYGVHNVYKDTNMRGLPCSAIFTT"
measurement_label = "binding relative to P54AR4-83v2 parent"
value = 1.03

